system: Human immunodeficiency virus 1; assay: Antiviral activity against HIV-1 205 infected in human CEM-SS cells assessed as reduction in virus-induced cytopathic effect by XTT assay; format: functional, organism-based; details: Human immunodeficiency virus 1, 205, CEM-SS
assay_metric: IC50

Input line: What value of IC50 has been reported for the following molecule? O=S1(c2ccccc2)=NC(=S)Nc2ccccc21 (stereo unspecified)
Output line: 950 nM

---

assay: Cytotoxicity against lymphoblastoid cell (unknown origin); details: lymphoblastoid cells
assay_metric: CC50

Input line: What value of CC50 has been reported for the following compound? Nc1nc(=O)n([C@@H]2CS[C@H](CO)O2)cc1F [EMTRICITABINE]
Output line: > 200 µM

---

assay: Oral bioavailability in cynomolgus monkey; settings: in vivo
assay_metric: bioavailability

Input line: What value of bioavailability has been reported for the following compound? Nc1nc(=O)n([C@@H]2CS[C@H](CO)O2)cc1F [EMTRICITABINE]
Output line: ~58%

---

assay: Oral bioavailability in mouse; details: in vivo
assay_metric: bioavailability

Input line: What value of bioavailability has been reported for the following compound? Nc1nc(=O)n([C@@H]2CS[C@H](CO)O2)cc1F
Output line: ~58%

---

target: DNA polymerase subunit gamma-1 (Homo sapiens, UniProt P54098); assay: Binding affinity to human DNA polymerase gamma assessed as dissociation constant
Sequence (P54098 whole entry): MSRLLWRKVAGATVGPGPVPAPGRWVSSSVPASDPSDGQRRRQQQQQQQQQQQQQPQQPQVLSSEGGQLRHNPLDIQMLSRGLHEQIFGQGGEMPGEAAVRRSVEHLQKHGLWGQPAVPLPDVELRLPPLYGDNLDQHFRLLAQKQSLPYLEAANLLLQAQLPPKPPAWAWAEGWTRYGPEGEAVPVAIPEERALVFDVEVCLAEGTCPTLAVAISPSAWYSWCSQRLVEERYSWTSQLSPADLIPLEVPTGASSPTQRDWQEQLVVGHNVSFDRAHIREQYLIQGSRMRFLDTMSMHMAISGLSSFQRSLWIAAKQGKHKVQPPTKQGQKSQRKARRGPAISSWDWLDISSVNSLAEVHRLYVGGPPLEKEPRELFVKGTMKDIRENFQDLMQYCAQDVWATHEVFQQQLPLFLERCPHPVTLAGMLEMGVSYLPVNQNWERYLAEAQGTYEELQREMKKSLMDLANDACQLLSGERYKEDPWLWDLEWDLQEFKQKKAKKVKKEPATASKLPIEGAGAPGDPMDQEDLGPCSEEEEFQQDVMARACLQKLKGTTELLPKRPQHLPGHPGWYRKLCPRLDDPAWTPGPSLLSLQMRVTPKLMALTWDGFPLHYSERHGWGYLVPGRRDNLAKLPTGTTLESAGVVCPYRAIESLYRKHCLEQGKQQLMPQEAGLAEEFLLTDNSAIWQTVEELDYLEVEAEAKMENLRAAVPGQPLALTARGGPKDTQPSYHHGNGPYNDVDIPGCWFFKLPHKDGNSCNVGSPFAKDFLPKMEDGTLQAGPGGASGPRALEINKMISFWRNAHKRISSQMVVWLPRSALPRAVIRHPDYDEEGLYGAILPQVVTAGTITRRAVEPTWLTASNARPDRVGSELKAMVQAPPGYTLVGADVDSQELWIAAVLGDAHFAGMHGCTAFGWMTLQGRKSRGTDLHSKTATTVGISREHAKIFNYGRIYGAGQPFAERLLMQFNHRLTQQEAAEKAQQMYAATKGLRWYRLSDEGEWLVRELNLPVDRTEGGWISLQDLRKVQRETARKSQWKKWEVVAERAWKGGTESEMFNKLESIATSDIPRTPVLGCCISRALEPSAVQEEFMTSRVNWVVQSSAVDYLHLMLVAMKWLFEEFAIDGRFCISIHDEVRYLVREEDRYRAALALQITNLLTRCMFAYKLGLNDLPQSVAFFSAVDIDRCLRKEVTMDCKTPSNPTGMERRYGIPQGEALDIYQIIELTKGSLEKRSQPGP
// values below are reported Kd
Respond with the bare value in µM.

Below are worked cases with known answers.
compound: Nc1nc(=O)n([C@@H]2CS[C@H](COP(=O)(O)OP(=O)(O)OP(=O)(O)O)O2)cc1F [EMTRICITABINE 5'-TRIPHOSPHATE]
system_tested: DNA polymerase subunit gamma-1 (Homo sapiens, UniProt P54098)
Kd / µM: 63
//
compound: Nc1ccn([C@H]2C[C@H](O)[C@@H](COP(=O)(O)OP(=O)(O)OP(=O)(O)O)O2)c(=O)n1 [DEOXYCYTIDINE TRIPHOSPHATE]
system_tested: DNA polymerase subunit gamma-1 (Homo sapiens, UniProt P54098)
Kd / µM: 1.1

Next up:
Input line: What value of Kd has been reported for the following compound? Nc1ccn([C@@H]2CS[C@H](COP(=O)(O)OP(=O)(O)OP(=O)(O)O)O2)c(=O)n1 [LAMIVUDINE TRIPHOSPHATE]
Output line: 13

---

test system: Human immunodeficiency virus 1; test: Antiviral activity against HIV-1 infected in PBMC (unknown origin); conditions: Human immunodeficiency virus 1, PBMC
assay_metric: pIC50
Quick note: pIC50 means taking -log10 of the concentration in moles per liter.

Input line: Value wanted: pIC50 (Human immunodeficiency virus 1) of entry Nc1nc(=O)n([C@@H]2CS[C@H](CO)O2)cc1F [EMTRICITABINE]
Output line: 9.00

---

test system: Human immunodeficiency virus 1; assay: Antiviral activity against HIV-1 TP-1 infected in human CEM-SS cells assessed as reduction in virus-induced cytopathic effect by XTT assay; type: functional, organism-based; conditions: Human immunodeficiency virus 1, TP-1, CEM-SS
assay_metric: IC50 (nM)
Respond with the bare value in nM.

Input line: Value wanted: IC50 (Human immunodeficiency virus 1) of entry O=S1(c2ccccc2)=NC(=S)Nc2ccccc21 (stereo unspecified)
Output line: 950

---

test system: Human immunodeficiency virus 1; assay: Antiviral activity against HIV-1 IIIB infected in human H9 cells; format: functional, organism-based; conditions: Human immunodeficiency virus 1, IIIB
// values below are reported IC50
Respond with the bare value in nM.

Below are worked cases with known answers.
molecule: CCC[C@]1(CCc2ccccc2)CC(O)=C([C@H](CC)c2cccc(NS(=O)(=O)c3ccc(C#N)cn3)c2)C(=O)O1
unit: nM
assay_result: 110

molecule: CCC[C@@]1(CCc2ccccc2)CC(O)=C([C@H](CC)c2cccc(NS(=O)(=O)c3ccc(C(F)(F)F)cn3)c2)C(=O)O1
unit: nM
assay_result: 30

Next up:
Input line: What value of IC50 has been reported for the following molecule? CCC[C@@]1(CCc2ccccc2)CC(O)=C([C@@H](CC)c2cccc(NS(=O)(=O)c3ccc(C#N)cn3)c2)C(=O)O1
Output line: 490
